Source: patent US9957271B2

- study-system: SIRT1 (Homo sapiens, UniProt Q96EB6)
- Sequence (Q96EB6 whole entry): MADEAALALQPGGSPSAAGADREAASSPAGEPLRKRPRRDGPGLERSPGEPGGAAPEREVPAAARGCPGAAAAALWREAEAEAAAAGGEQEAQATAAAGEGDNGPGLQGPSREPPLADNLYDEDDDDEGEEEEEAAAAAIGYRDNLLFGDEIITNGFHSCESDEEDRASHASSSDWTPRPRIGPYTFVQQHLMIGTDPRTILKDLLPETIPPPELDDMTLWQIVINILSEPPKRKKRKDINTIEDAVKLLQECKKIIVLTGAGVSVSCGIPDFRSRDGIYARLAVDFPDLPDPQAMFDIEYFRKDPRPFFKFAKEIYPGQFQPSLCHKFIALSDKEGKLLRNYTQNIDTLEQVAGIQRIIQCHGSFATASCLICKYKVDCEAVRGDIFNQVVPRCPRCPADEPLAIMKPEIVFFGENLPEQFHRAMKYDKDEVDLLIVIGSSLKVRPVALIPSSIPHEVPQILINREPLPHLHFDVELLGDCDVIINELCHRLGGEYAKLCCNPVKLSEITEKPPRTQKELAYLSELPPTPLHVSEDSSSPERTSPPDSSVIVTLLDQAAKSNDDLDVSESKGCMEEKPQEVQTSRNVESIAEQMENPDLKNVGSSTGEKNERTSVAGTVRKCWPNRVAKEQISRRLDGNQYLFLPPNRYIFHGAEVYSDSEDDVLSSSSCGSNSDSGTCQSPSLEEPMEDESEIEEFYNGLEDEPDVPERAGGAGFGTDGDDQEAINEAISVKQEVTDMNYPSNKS
- protocol: Trp mass spectrometry assay of SIRT1 activity
- Type: biochemical
- reported-conditions: Trp assay; concentration giving 150% activation of SIRT1
measure-name: Trp EC1.5 (μM)

>>> observed_measurement("COc1nccc(NC(=O)c2cnc3ccc(N4CC[C@H](F)C4)nn23)n1 [Compound 918]")
"B (EC1.5 1-25 μM)"
>>> observed_measurement("Cc1nc2ccc(-c3cccc(OC[C@H](O)CO)c3)nn2c1C(=O)Nc1cccnn1 [Compound 597]")
"A (EC1.5<1 μM)"
>>> observed_measurement("Cc1cc(-c2ccccc2C(F)(F)F)nn2c(C(=O)Nc3cccnc3)cnc12 [Compound 206]")
"B (EC1.5 1-25 μM)"
>>> observed_measurement("O=C(Nc1cnn2ccc(-c3ccccc3OC(F)(F)F)nc12)c1ncccc1F [Compound 754]")
"B (EC1.5 1-25 μM)"
>>> observed_measurement("O=C(Nc1ccncc1F)c1cnc2ccc(-c3ccccc3OC[C@H](O)CO)nn12 [Compound 831]")
"B (EC1.5 1-25 μM)"
>>> observed_measurement("Cc1cccc(NC(=O)c2cnc3ccc(-c4ccccc4OCC(O)CO)nn23)n1 (centres unmarked) [Compound 369]")
"B (EC1.5 1-25 μM)"
>>> observed_measurement("Cc1nc(C(=O)Nc2cnc3ccc(-c4ccccc4C(F)(F)F)nn23)cs1 [Compound 273]")
"B (EC1.5 1-25 μM)"
>>> observed_measurement("Cc1cccc(-c2ccc3nc(C)c(C(=O)Nc4cccnn4)n3n2)c1 [Compound 766]")
"A (EC1.5<1 μM)"
>>> observed_measurement("CC(C)c1csc(C(=O)Nc2cnc3ccc(-c4ccccc4C(F)(F)F)nn23)n1 [Compound 272]")
"B (EC1.5 1-25 μM)"
>>> observed_measurement("O=C(Nc1cnccn1)c1cnc2ccc(N3CC(F)(F)C3)nn12 [Compound 926]")
"C (EC1.5>25 μM)"
>>> observed_measurement("O=C(Nc1cnc2ccc(-c3ccccc3OC(F)(F)F)nn12)c1ncccn1 [Compound 315]")
"B (EC1.5 1-25 μM)"
>>> observed_measurement("O=C(Nc1ccnc(OCC(O)CO)c1)c1cnc2ccc(-c3ccccc3F)nn12 (centres unmarked) [Compound 284]")
"C (EC1.5>25 μM)"
>>> observed_measurement("O=C(Nc1cnn2ccc(-c3ccccc3OC(F)(F)F)nc12)c1ncc(F)cc1F [Compound 755]")
"B (EC1.5 1-25 μM)"
>>> observed_measurement("Cc1cnc(C(=O)Nc2cnn3ccc(-c4ccccc4OC(F)(F)F)nc23)s1 [Compound 782]")
"C (EC1.5>25 μM)"
>>> observed_measurement("Cc1csc(NC(=O)c2c(C)nn3ccc(-c4ccccc4C(F)(F)F)nc23)n1 [Compound 650]")
"A (EC1.5<1 μM)"
>>> observed_measurement("O=C(Nc1ccc(C(F)(F)F)nc1)c1cnc2ccc(N3CC[C@H](F)C3)nn12 [Compound 919]")
"C (EC1.5>25 μM)"
>>> observed_measurement("O=C(Nc1ccc(F)cn1)c1cnc2ccc(N3CC(F)(F)C3)nn12 [Compound 914]")
"C (EC1.5>25 μM)"
>>> observed_measurement("O=C(Nc1cccnc1)c1cnc2ccc(N3CCC(F)(F)CC3)nn12 [Compound 928]")
"B (EC1.5 1-25 μM)"
>>> observed_measurement("O=C(Nc1cccnn1)c1cnc2ccc(N3CCCC3)nn12 [Compound 895]")
"C (EC1.5>25 μM)"
>>> observed_measurement("O=C(Nc1cnn2ccc(-c3ccccc3C(F)(F)F)nc12)c1cnc(O)cn1 [Compound 828]")
"C (EC1.5>25 μM)"
>>> observed_measurement("Cc1nc2c(C)cc(-c3ccccc3C(F)(F)F)nn2c1C(=O)Nc1ccnc(C(C)(C)C)n1 [Compound 731]")
"A (EC1.5<1 μM)"
>>> observed_measurement("Cc1cccnc1NC(=O)c1c(C)nn2ccc(-c3ccccc3C(F)(F)F)nc12 [Compound 722]")
"A (EC1.5<1 μM)"
>>> observed_measurement("Cc1ccnc(NC(=O)c2c(C)nn3ccc(-c4ccccc4C(F)(F)F)nc23)c1 [Compound 683]")
"A (EC1.5<1 μM)"
